Source: PubChem BioAssay AID1159580

assay: chemical genetic growth profiling, strain panel (AID 1159580);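 also: tested at 20 µM; growth read once vehicle control cultures reached saturation at 30 °C; 1 = growth at the plate median or of vehicle wells; lower values mean less growth of the strain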
appliedConditions: S. cerevisiae deletion strains, growth OD, locus YDR297W, strain sur2, hits give low values
Hit rate of the full screen: of about 5,500 compounds, about 2,000 (36%) were called active. Another 18% or so got no clear call; they are omitted. Some of the results follow.
# Lookup of reported normalized growth keyed by entry
The response must contain the number and no unit.

Field: example entries. Status: answers known.
CCOP(=S)(OCC)SCn1c(=O)oc2cc(Cl)ccc21 | 0.943
Oc1c(I)cc(Cl)c2cccnc12 | 0.074
C=CC(C)(O)CC/C=C(\C)CCC=C(C)C (centres undefined) | 0.974
C[C@H](N)[C@H](O)c1ccc(O)c(O)c1 | 1.01
C/C=C/c1ccc2c(c1)OCO2 | 1.02

**Query** Can you share its normalized growth? I mean this compound: Cc1ccc2c(Cl)cc(Cl)c(O)c2n1
**Result** 1.02

**Query** How about this compound: Oc1c(Cl)cc(Cl)c2cccnc12
**Result** 0.067

**Query** Check Cc1c(Nc2ncccc2C(=O)O)cccc1C(F)(F)F too.
**Result** 0.996

**Query** Item: CO[C@H]1/C=C/O[C@@]2(C)Oc3c(C)c(O)c4c(O)c(c5c(nc6cc(C)ccn65)c4c3C2=O)NC(=O)/C(C)=C\C=C\[C@H](C)[C@H](O)[C@@H](C)C(O)[C@@H](C)[C@H](OC(C)=O)[C@@H]1C (some centres undefined)
**Result** 1.04

**Query** Same read-out for CO[C@H]1/C=C/O[C@@]2(C)Oc3c(C)c(O)c4c(O)c(c(/C=N/N5CCN(C)CC5)c(O)c4c3C2=O)NC(=O)/C(C)=C\C=C\C(C)[C@H](O)[C@@H](C)[C@@H](O)[C@@H](C)[C@@H](OC(C)=O)[C@@H]1C (some centres undefined) ?
**Result** 1.01

**Query** Can you check O=[N+]([O-])c1ccc(O)c([N+](=O)[O-])c1 next?
**Result** 0.826

**Query** Lookup CC(=O)Nc1ccc(S(=O)(=O)c2ccc(NC(C)=O)cc2)cc1
**Result** 1.01

**Query** Lookup NC(=NCCC[C@H](N)C(=O)O)NC(CCC(=O)O)C(=O)O (some centres undefined)
**Result** 1.01

**Query** And the next one, C1CNCCN1 ?
**Result** 1.01

**Query** Now the compound C=CC(C1=CC(=O)C(OC)=CC1=O)c1ccc(O)cc1 (centres undefined)
**Result** 0.986

====

assay: chemical genetic growth profiling, strain panel (AID 1159580);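 also: tested at 20 µM; growth read once vehicle control cultures reached saturation at 30 °C; 1 = growth at the plate median or of vehicle wells; lower values mean less growth of the strain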
appliedConditions: S. cerevisiae deletion strains, growth OD, locus YNL224C, strain SQS1, hits give low values
About 2,000 (36%) of roughly 5,500 compounds were called active. Not shown: some 18% with an inconclusive outcome. This is one part of the list.
observable: normalized growth
Note: the reply should be a number with no unit written.

**Query** Given the entry CN/C(=C\[N+](=O)[O-])NCCSCc1ccc(CN(C)C)o1 , report its measured normalized growth.
**Result** 0.998

====

assay: chemical genetic growth profiling, strain panel (AID 1159580);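 also: tested at 20 µM; growth read once vehicle control cultures reached saturation at 30 °C; 1 = growth at the plate median or of vehicle wells; lower values mean less growth of the strain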
appliedConditions: S. cerevisiae deletion strains, growth OD, locus YDR101C, strain arx1, hits give low values
Hit rate of the full screen: of about 5,500 compounds, about 2,000 (36%) were called active. Not shown: some 18% with an inconclusive outcome. The list shows a part of the results.
observable: normalized growth
Format: numeric value only, no unit, no commentary.

**Query** Please report the recorded normalized growth for O[N+]1=CC=CCC1=S.On1ccccc1=S.[Zn] .
**Result** 0.0573

**Query** Now this one: Nc1ccc(S(=O)(=O)Nc2ccc(Cl)nn2)cc1
**Result** 0.961
